experimental_system: Grb2 SH2 (UniProt P62993)
Sequence (P62993 whole entry, looked up): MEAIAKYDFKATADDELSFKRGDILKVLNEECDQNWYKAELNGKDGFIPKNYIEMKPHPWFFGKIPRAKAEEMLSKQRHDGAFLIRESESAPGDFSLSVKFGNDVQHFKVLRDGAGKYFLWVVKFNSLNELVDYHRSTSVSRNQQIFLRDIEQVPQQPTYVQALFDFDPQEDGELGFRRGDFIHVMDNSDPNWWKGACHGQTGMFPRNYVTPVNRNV
method_description: SH2 binding enrichment of the phosphorylated peptide, bacterial display (enrichment ratio); higher = better substrate or ligand; peptides without Tyr show the background
Task for the reader: assign each of the following sequences its reported SH2 binding enrichment.

Completed entries (count: 4):
IGMIIYFARKA [VCAM1_Y718]; 2.08
KKHIPCREHKS [CSNK1G2_Y206_Y206C]; 1.6
KDQGIYEDYVE [MYL6_Y86_T85I]; 0.899
ANVKWYRNGRE; 0.658

The following sequences each have a reported value; give each one's SH2 binding enrichment.
1. SAPDSYIGIGN [SLC38A4_Y27]
2. RGKEPYTKKAL [TTC21B_Y160]
3. HEEDNYIELIP [NWD2_Y566]

Response given:
1. 0.769
2. 0.785
3. 0.53

The following sequences each have a reported value; give each one's SH2 binding enrichment.
1. DHAGTYGLGDR [MAPT_Y18]
2. YCRHNYGAVES [HLA-DRB1_Y112_V114A]
3. HHLSTYTKMLF [CHST8_Y251_R247H]
4. WHHTFYNELRV [ACTA1_Y93]
5. MPLTKYLKRIK [CNGB3_Y200_E199K]
6. NTGDDYDLFGG [PTPN11_Y63_Y62D_YF]

Response given:
[0.797, 0.902, 1.11, 1.2, 1.27, 0.666]

Challenge: Please supply the value of reported SH2 binding enrichment for the item ALRASYTPSPA [ESS2_Y418]
Response given: 0.893

----------
experimental_system: c-Src SH2
method_description: SH2 binding enrichment of the phosphorylated peptide, bacterial display (enrichment ratio); higher = better substrate or ligand; peptides without Tyr show the background
Task for the reader: assign each of the following sequences its reported SH2 binding enrichment.
Answers are plain numbers.

Completed entries (count: 3):
RGSQQYRALTV [TUBB8_Y281]; 0.535
AVLSLYASGST [ACTG2_Y144_R148S]; 0.611
KVDKEYEVHVR [GHR_Y226_R229H]; 0.52

The following sequences each have a reported value; give each one's SH2 binding enrichment.
1. DFKIIYIVPMR [SNRNP200_Y540_A542V]
2. AGGTRYRYVSQ [UCN3_Y95_R91G]

Response given:
[1.08, 0.438]

----------
System: c-Abl (mouse);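 note: 11-residue human phosphosite peptides and single-mutation variants displayed on the E. coli surface, counted by deep sequencing, each peptide's frequency after selection divided by its frequency in the unselected input library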;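 note: frequency after pTyr selection over input frequency; kinase dosed for 20-30% of maximal phosphorylation in three min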
method_description: phosphorylation enrichment, bacterial display (enrichment ratio); higher = better substrate or ligand; peptides without Tyr show the background
Grouping rule (phosphorylation enrichment): category 1 (below 0.7), category 2 (0.7 to below 1), category 3 (1 or more)

A selection of reference data follows.
PQEVMYAQLDH [KIR3DL2_Y398_T397M]; category 3
QPGDIYHQTWA [GBA_Y244]; category 3
PEYVVYKPQME [CCRL2_Y170_F167Y]; category 3
VDHFGYTKDDK [APOB_Y740]; category 1
FETDFYRKGGK [INSR_Y1190_YF]; category 1
VSLEAYCKHKY [RXRA_Y403_A398V]; category 2

Challenge: Would you mind sorting SVVVTYEPPEV [TP53_Y220_P219T] into the appropriate category?
Response given: category 2

Challenge: Would you mind sorting LQTYRYHGHSM [PDHA1_Y289] into the appropriate category?
Response given: category 1

Challenge: Would you mind sorting ALAHKYDGGGG [HBB_Y146_H147D] into the appropriate category?
Response given: category 1

Challenge: Would you mind sorting KRLAVYIDEEA [EPM2A_Y304_P301L] into the appropriate category?
Response given: category 2
